# SYSTEM_UNDER_TEST: UniProt P35346
# Sequence (P35346 whole entry): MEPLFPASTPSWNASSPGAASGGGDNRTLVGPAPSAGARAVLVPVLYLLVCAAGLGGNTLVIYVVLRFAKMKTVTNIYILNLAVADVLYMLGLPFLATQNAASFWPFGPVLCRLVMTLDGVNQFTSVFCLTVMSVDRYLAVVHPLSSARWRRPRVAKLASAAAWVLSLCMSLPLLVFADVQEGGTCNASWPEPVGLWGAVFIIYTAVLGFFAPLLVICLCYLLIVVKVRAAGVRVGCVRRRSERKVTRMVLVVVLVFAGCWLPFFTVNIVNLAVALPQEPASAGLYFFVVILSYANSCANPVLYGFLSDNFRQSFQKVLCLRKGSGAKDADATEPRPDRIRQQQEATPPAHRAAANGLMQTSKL
# PROCEDURE_DETAILS: Hit Hunter cAMP XS+ assay, SST5 activation via Gi (reduction of forskolin-stimulated cAMP)
# Type: cell-based
# CONDITION_NOTES: read-out: SST5 (EMax)
*1 amine or outer side, *2 acyl side, *3 side chain or, on linkers, in order; H or OH if unused. Where a SMILES comes first, the peptide text is derived from it. Side-chain parts run from the residue outwards. [ ]: non-standard residue; d: D form. The star is where a group is joined. Ala(piperidin-4-yl) = O=C([C@H](CC1CCN([*:3])CC1)N[*:1])[*:2]; Ala(piperazin-1-yl) = N[C@@H](CN1CCNCC1)C(=O)O; Ethylenediamine = C(CN[*:2])N[*:1]; Hyp = O=C(O)[C@@H]1C[C@@H](O)CN1; hPhe = N[C@@H](CCc1ccccc1)C(=O)O; 3Pal = N[C@@H](Cc1cccnc1)C(=O)O; Tic = O=C(O)[C@@H]1Cc2ccccc2CN1; CO = O=C([*:1])[*:2]; Bn = c1ccc(C*)cc1; X4 = C1CC(C*)C1
Would you mind telling me the reported Emax of each entry?
Return type: number; implicit unit %.

Task: So what does the record say about Emax for NCCNC(=O)O[C@@H]1C[C@H]2C(=O)N[C@@H](CCc3ccccc3)C(=O)N[C@H](Cc3c[nH]c4ccccc34)C(=O)N[C@@H](CC3CCNCC3)C(=O)N[C@@H](Cc3ccc(OCC4CCC4)cc3)C(=O)N[C@@H](Cc3cccnc3)C(=O)N2C1 [Example 50] (cyclo([3Pal][Hyp]([CO-Ethylenediamine])[hPhe][dW][Ala(piperidin-4-yl)]Y(X4))) ?
Result: 103

Task: Any idea what its Emax is? The compound is NCCNC(=O)O[C@@H]1C[C@H]2C(=O)N[C@@H](CCc3ccccc3)C(=O)N[C@@H](Cc3c[nH]c4ccccc34)C(=O)N[C@@H](CN3CCNCC3)C(=O)N[C@@H](Cc3ccc(OCc4ccccc4)cc3)C(=O)N3Cc4ccccc4C[C@H]3C(=O)N2C1 [Example 36] (cyclo([Hyp]([CO-Ethylenediamine])[hPhe]W[Ala(piperazin-1-yl)]Y(Bn)[Tic]))
Result: 102

Task: # query: Emax of entry NCCNC(=O)O[C@@H]1C[C@H]2C(=O)N[C@@H](CCc3ccccc3)C(=O)N[C@H](Cc3c[nH]c4ccccc34)C(=O)N[C@@H](CC3CCNCC3)C(=O)N[C@@H](Cc3ccc(OCc4ccccc4)cc3)C(=O)N3Cc4ccccc4C[C@H]3C(=O)N2C1 [Example 17] (cyclo([Hyp]([CO-Ethylenediamine])[hPhe][dW][Ala(piperidin-4-yl)]Y(Bn)[Tic]))
Result: 104
